Recorded values, source patent US20260364057A1.

target: Human KIF18A (1-376aa) (Homo sapiens, UniProt Q8NI77)
measurement.label: IC50

Some compounds with recorded IC50:
[
  {
    "compound": "CC1Cn2c(nc3c(NC(=O)c4ccc(NS(=O)(=O)CCO)cc4N4CCC5(CC4)CC5)cccc32)CO1 (stereo not shown) [Compound 55]",
    "IC50": "< 200 nM"
  },
  {
    "compound": "N#Cc1ccc(NC(=O)c2ccc(NS(=O)(=O)CCO)cc2N2CCC3(CC2)CC3)c2nc3n(c12)CC1C3C1(F)F (stereo not shown) [Compound 110]",
    "IC50": "< 200 nM"
  },
  {
    "compound": "CCNC(=O)c1ccc(NC(=O)c2ccc(NS(=O)(=O)CCO)cc2N2CCC3(CC2)CC3)c2nc3n(c12)CCCCC3 [Compound 113]",
    "IC50": "< 200 nM"
  },
  {
    "compound": "O=C(Nc1ccnc2c1nc1n2CCCC1)c1ccc(NS(=O)(=O)CCO)cc1N1CCC2(CC1)CC2 [Compound 36]",
    "IC50": "< 200 nM"
  },
  {
    "compound": "O=C(Nc1cccc2c1nc1n2CC2CC2C1)c1ccc(NS(=O)(=O)CCO)cc1N1CCC2(CC1)CC2 (stereo not shown) [Compound 70]",
    "IC50": "< 200 nM"
  }
]

*Q* Recall the recorded IC50 for O=C(Nc1cccc2c1nc1n2C2CCC1OC2)c1ccc(NS(=O)(=O)CCO)cc1N1CCC2(CC1)CC2 (stereo not shown) [Compound 77] with Human KIF18A (1-376aa) (Homo sapiens, UniProt Q8NI77) and state it.
*A* < 200 nM

*Q* Recall the recorded IC50 for O=C(Nc1cc2c(c(N3CC4C(C3)C4(F)F)c1)OCC2)c1ccc(NS(=O)(=O)CCO)cc1N1CCC2(CC1)CC2 (stereo not shown) [Compound 114] with Human KIF18A (1-376aa) (Homo sapiens, UniProt Q8NI77) and state it.
*A* < 200 nM

*Q* Recall the recorded IC50 for O=C(Nc1snc2cc3c(nc12)CCCC3)c1ccc(NS(=O)(=O)CCO)cc1N1CCC2(CC1)CC2 [Compound 52] with Human KIF18A (1-376aa) (Homo sapiens, UniProt Q8NI77) and state it.
*A* < 200 nM

*Q* Recall the recorded IC50 for O=C(Nc1ccc2cc3n(c2n1)CCCC3)c1ccc(NS(=O)(=O)CCO)cc1N1CCC2(CC1)CC2 [Compound 26] with Human KIF18A (1-376aa) (Homo sapiens, UniProt Q8NI77) and state it.
*A* < 200 nM

*Q* Recall the recorded IC50 for O=C(Nc1cccc2c1nc1n2CCCCC1)c1ccc(NS(=O)(=O)CCO)cc1N1CCC2(CC1)CC2 [Compound 24] with Human KIF18A (1-376aa) (Homo sapiens, UniProt Q8NI77) and state it.
*A* < 200 nM

====

Biological target: Human KIF18A (1-376aa) (Homo sapiens)
Sequence (Q8NI77 1-376): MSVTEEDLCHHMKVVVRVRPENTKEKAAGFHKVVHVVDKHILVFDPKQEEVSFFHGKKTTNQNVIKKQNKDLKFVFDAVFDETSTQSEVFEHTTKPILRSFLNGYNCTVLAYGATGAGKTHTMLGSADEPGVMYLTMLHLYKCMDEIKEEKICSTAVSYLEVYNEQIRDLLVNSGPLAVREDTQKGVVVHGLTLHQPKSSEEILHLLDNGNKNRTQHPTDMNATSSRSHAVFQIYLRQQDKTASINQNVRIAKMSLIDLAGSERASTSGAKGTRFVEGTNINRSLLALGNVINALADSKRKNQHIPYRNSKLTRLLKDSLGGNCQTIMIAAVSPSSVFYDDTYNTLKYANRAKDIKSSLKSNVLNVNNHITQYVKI
pIC50: −log10 of the molar value.
measurement.label: pIC50

[
  {
    "compound": "N#Cc1ccc(NC(=O)c2ccc(NS(=O)(=O)CCO)cc2N2CCC3(CC2)CC3)c2nc3n(c12)CC1CC31 (stereo not drawn)",
    "experimental.system": "Human KIF18A (1-376aa) (Homo sapiens)",
    "experimental.result": "> 6.70"
  },
  {
    "compound": "O=C(Nc1cccc2c1nc1n2C2CCC1C2)c1ccc(NS(=O)(=O)CCO)cc1N1CCC2(CC1)CC2 (stereo not drawn)",
    "experimental.system": "Human KIF18A (1-376aa) (Homo sapiens)",
    "experimental.result": "> 6.70"
  }
]

*Q* What pIC50 value was documented for this compound, O=C(Nc1cccc2c1nc1n2CC2CCC1C2(F)F)c1ccc(NS(=O)(=O)CCO)cc1N1CCC2(CC1)CC2 (stereo not drawn) ?
*A* > 6.70
